Data credit: the RNAGym collection of RNA variant scans (doi:10.7554/elife.90254)

B1: LINE1-full (parent)
chain: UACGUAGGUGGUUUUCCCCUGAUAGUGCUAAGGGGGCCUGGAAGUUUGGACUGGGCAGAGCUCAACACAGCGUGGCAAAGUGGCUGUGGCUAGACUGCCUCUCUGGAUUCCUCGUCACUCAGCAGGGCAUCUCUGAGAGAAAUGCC

variants of: B1; assay: self-cleavage, relative activity (ratio to wild type); higher = more cleavage; in vitro, sequencing; the parent is a self-cleaving ribozyme
The entries below come with measured self-cleavage values attached.
value kind: self-cleavage

INSERT INTO results (mutant_label, value_kind, reported_result) VALUES
  ('U47C U73A', 'self-cleavage', 2.06),
  ('U20C U62A', 'self-cleavage', 0.11),
  ('A64G G137A', 'self-cleavage', 0.21),
  ('C63U A129U', 'self-cleavage', 0.54),
  ('U15C C133U', 'self-cleavage', 1.51),
  ('U14C U29C', 'self-cleavage', 1.4),
  ('C84U A94G', 'self-cleavage', 0.04),
  ('A78G U115A', 'self-cleavage', 1.12),
  ('U20G U29C', 'self-cleavage', 1.36),
  ('U39A U73A', 'self-cleavage', 1.76),
  ('A42U A141U', 'self-cleavage', 0.81),
  ('C28A A94G', 'self-cleavage', 0),
  ('U100G G114A', 'self-cleavage', 1.77),
  ('A57G G139A', 'self-cleavage', 0.75),
  ('A24G G139A', 'self-cleavage', 1.3),
  ('U102C A124C', 'self-cleavage', 2.04),
  ('G35U C145U', 'self-cleavage', 1.21),
  ('U23C A64C', 'self-cleavage', 0.29),
  ('A65G A140U', 'self-cleavage', 0.07),
  ('G4A U46A', 'self-cleavage', 1.17),
  ('G40U A43G', 'self-cleavage', 1.11),
  ('U62A U112A', 'self-cleavage', 0.05);
